Each recorded value in this set is attributed to paper PMC10569036.

# Protocol: shake flask on a mixture of 185; loss from the water phase only; LC-Orbitrap peak areas
# Settings: room
Binned log partition 1-octanol / HPLC water, unbuffered, traces of methanol / DMSO; ranges: low bin (below -0.2 log10), mid bin (-0.2 log10 to below 1 log10), high bin (1 log10 or more)

INSERT INTO measurements (compound, assigned_category) VALUES
  ('Oc1c(Cl)ccc(Cl)c1Cl', 'low bin'),
  ('CCCOC(=O)c1ccc(C(=O)OCCC)nc1', 'high bin'),
  ('N#CC(c1ccccc1)c1ccccc1', 'low bin'),
  ('CC(=O)Nc1ccc(C)cc1C', 'mid bin'),
  ('O=C1C=CC(=O)N1c1ccc(Cc2ccc(N3C(=O)C=CC3=O)cc2)cc1', 'mid bin'),
  ('CC(C)N1C(=O)c2ccccc2NS1(=O)=O', 'mid bin'),
  ('Cc1oncc1C(=O)Nc1ccc(C(F)(F)F)cc1', 'high bin'),
  ('CC(C)C1(C)N=C(c2nc3ccccc3cc2C(=O)O)NC1=O (centres unmarked)', 'mid bin'),
  ('O=C1OC(=O)C2C3C=CC(C3)C12 (centres unmarked)', 'low bin'),
  ('CCCCNS(=O)(=O)c1ccc(C)cc1', 'high bin'),
  ('COC(=O)c1ccc(C(=O)OC)c(C(=O)OC)c1', 'high bin'),
  ('CCCCCCC(O)CCCCCCCCCCC(=O)OC (centres unmarked)', 'low bin'),
  ('c1coc(-c2nc3ccccc3[nH]2)c1', 'high bin'),
  ('FC(F)C(F)(F)OCC(Cn1cncn1)c1ccc(Cl)cc1Cl (centres unmarked)', 'high bin');
